# assayed_target: AKT1 WT (Homo sapiens)
# Sequence (P31749 whole entry): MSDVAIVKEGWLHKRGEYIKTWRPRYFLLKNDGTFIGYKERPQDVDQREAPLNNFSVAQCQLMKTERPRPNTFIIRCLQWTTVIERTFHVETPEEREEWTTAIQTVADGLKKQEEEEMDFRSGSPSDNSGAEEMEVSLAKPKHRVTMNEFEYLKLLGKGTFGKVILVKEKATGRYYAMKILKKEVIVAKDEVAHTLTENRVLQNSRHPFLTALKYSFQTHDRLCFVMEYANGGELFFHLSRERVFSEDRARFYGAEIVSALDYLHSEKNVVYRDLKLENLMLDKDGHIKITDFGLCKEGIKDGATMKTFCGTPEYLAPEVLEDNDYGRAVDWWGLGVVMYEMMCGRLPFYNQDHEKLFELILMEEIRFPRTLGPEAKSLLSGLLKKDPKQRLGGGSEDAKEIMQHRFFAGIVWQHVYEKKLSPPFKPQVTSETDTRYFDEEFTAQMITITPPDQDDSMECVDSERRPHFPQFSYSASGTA
# assay_explanation: Live cell AKT1 WT target engagement by NanoBRET competitive probe displacement
# condition_description: HEK293 cells transfected with kinase-NanoLuciferase fusion, 2 h at 37° C.
# Protocol: Determining Live Cell AKT1 E17K, AKT1 WT, and AKT2 Target Engagement by NanoBRET Competitive Probe Displacement. Live cell target engagement assays were performed as described (Vasta, J. D. et al. Cell Chem Biol 2018, 25(11), 206-214). […] After incubation for 2 h at 37° C., luciferase substrate and extracellular luciferase inhibitor were added to all wells, and luminescent intensity at 460 nm and 600 nm were measured on a multimode plate-reader. […]
Task for the reader: assign each of the following molecules its reported IC50.
Use nM as the unit, but write only the number.

I have this molecule here, C#CC1CC(N[C@H]2CCc3cc(-n4c(-c5cccnc5N)nc5ccc(-n6cccn6)nc54)ccc32)CCN1C(=O)C=C (single isomer, unassigned) [Example 112] , and I need its recorded IC50. 9.52

Sample Nc1ncccc1-c1nc2ccc(-n3cccn3)nc2n1-c1ccc2c(c1)CC[C@@H]2NC1CCN(C(=O)[C@H]2CO2)CC1 [Example 122] — what was its IC50? 41.3

Could you share which IC50 value was measured for C=CC(=O)N1CCC(N[C@@H]2c3ccc(-n4c(-c5cccnc5N)nc5ccc(-n6cccn6)nc54)cc3CC2F)CC1C(F)F (single isomer, unassigned) [Example 301] ? 105

Given C=CC(=O)N1CCC(N[C@H]2CCc3cc(-n4c(-c5cccnc5N)nc5ccc(-n6cc(F)cn6)nc54)ccc32)CC1 [Example 254] , state its recorded IC50. 89.7

I would be grateful if you could share the reported IC50 for C=CC(=O)N1CCC(N[C@@H]2c3ccc(-n4c(-c5cccnc5N)nc5ccc(-n6cccn6)nc54)cc3CC2OC)CC1 (single isomer, unassigned) [Example 163] . 71.7

Tell me the measured IC50 of CC(C)(C)/C=C/C(=O)N1CCC(N[C@H]2CCc3cc(-n4c(-c5cccnc5N)nc5ccc(-n6cccn6)nc54)ccc32)CC1 [Example 95] , please. 110
